TEST TARGET: CD3ε homodimer protein (human, UniProt P07766 23-126, limits assumed)
Sequence (P07766 23-126 limits assumed): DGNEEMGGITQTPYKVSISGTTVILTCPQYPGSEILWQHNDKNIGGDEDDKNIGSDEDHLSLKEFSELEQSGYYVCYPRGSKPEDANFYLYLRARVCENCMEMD
RUN DESCRIPTION: SPR, immobilized CD3ε homodimer;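 note: biacore T200 surface plasmon resonance at 25 °C, antibody variants flowed as analytes over amine-coupled CD3ε homodimer on a CM4 chip, variant binding amount divided by that of GLS3000 antibody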
Please go through the items and note down their ratio of amounts bound (vs GLS3000).
Give a plain numeric answer without units written out.

Query: Request the reported ratio of amounts bound (vs GLS3000) associated with GLS3000 H34W (antibody, name in Kabat numbering, V domains shown, one-arm format as m2) VH: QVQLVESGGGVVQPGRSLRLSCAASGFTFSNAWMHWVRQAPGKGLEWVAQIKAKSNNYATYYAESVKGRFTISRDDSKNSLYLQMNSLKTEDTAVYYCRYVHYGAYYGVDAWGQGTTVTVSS VL: DIVMTQSPLSLPVTPGEPASISCRSSQSLVHSNRNTYLWWYQQKPGQAPRLLIYKVSNRFSGVPDRFSGSGSGTDFTLKISRVEAEDVGVYYCGQGTQVPYTFGQGTKLEIK
Result: 0.21

Query: Request the reported ratio of amounts bound (vs GLS3000) associated with GLS3000 H27dR (antibody, name in Kabat numbering, V domains shown, one-arm format as m2) VH: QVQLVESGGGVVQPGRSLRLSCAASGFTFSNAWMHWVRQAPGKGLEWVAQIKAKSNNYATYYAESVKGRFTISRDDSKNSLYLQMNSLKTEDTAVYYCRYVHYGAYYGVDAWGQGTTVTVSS VL: DIVMTQSPLSLPVTPGEPASISCRSSQSLVRSNRNTYLHWYQQKPGQAPRLLIYKVSNRFSGVPDRFSGSGSGTDFTLKISRVEAEDVGVYYCGQGTQVPYTFGQGTKLEIK
Result: 0.31

Query: Request the reported ratio of amounts bound (vs GLS3000) associated with GLS3000 G89R (antibody, name in Kabat numbering, V domains shown, one-arm format as m2) VH: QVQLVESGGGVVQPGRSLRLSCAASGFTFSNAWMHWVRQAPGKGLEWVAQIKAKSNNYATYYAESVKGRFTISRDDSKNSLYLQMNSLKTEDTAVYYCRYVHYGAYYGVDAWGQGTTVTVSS VL: DIVMTQSPLSLPVTPGEPASISCRSSQSLVHSNRNTYLHWYQQKPGQAPRLLIYKVSNRFSGVPDRFSGSGSGTDFTLKISRVEAEDVGVYYCRQGTQVPYTFGQGTKLEIK
Result: 0.19
